Values from the OPERA property sets (Mansouri et al. 2018)

Think of 2 as a floor: if logP stands on it or above, it is T; beneath it, F.

INPUT: Exam item: decide whether the reported logP for `O=c1ccoc2cc(O)ccc12` is at least 2.
OUTPUT: F

INPUT: Repeat with `S=C(NN=Cc1ccco1)Nc1ccccc1`
OUTPUT: T

INPUT: Repeat with CCC(C)OC(C)=O (stereo not given)
OUTPUT: F

INPUT: Repeat with `CC(=O)Nc1ccc2ncccc2c1`
OUTPUT: F

INPUT: Repeat with `C1CN2CCC1CC2`
OUTPUT: F

====

One threshold, 2, splits the recorded logP values: lower ones are condition met, equal or higher ones are condition not met.

INPUT: # check: logP < 2 for `CCCCOC(=O)c1cccnc1`
OUTPUT: condition not met

INPUT: Repeat with `CCOC(=O)C=Cc1ccccc1`
OUTPUT: condition not met

INPUT: Repeat with `OCCN1CCN(CCC=C2c3ccccc3Sc3ccc(Cl)cc32)CC1`
OUTPUT: condition not met

INPUT: Repeat with CCCC(=NOCC)C1C(=O)CC2(CCCCC2)OC1=O (centres undefined)
OUTPUT: condition not met

INPUT: Repeat with `CN(C)N=Nc1cccc2oc3ccccc3c12`
OUTPUT: condition not met

INPUT: Repeat with `Clc1cccc(-c2cccc(Cl)c2Cl)c1Cl`
OUTPUT: condition not met

INPUT: Repeat with `N#CCCN(CCC#N)N=O`
OUTPUT: condition met

INPUT: Repeat with `COC(=O)C(=O)OC`
OUTPUT: condition met

INPUT: Repeat with `O=C(O)Cc1ccc(OCCCc2ccccc2)c(Cl)c1`
OUTPUT: condition not met

INPUT: Repeat with CC1CN(N=O)CC(C)O1 (centres undefined)
OUTPUT: condition met

INPUT: Repeat with O=C(O)CC(O)C(=O)O (centres undefined)
OUTPUT: condition met

INPUT: Repeat with `O=c1cc(-c2ccccc2)o[nH]1`
OUTPUT: condition not met

INPUT: Repeat with CCC(C)NC(=O)C=C(Br)c1ccccc1 (centres undefined)
OUTPUT: condition not met

INPUT: Repeat with O=NN(CCCl)C(=O)NC1CCCCC1Cl (centres undefined)
OUTPUT: condition not met

INPUT: Repeat with CCCC(C)O (centres undefined)
OUTPUT: condition met

INPUT: Repeat with `C=C(Br)CC1(C(C)C)C(=O)NC(=O)NC1=O`
OUTPUT: condition met

INPUT: Repeat with `CCOP(=O)(OCC)SCn1nnc2ccccc2c1=O`
OUTPUT: condition met

INPUT: Repeat with `Nc1ccc2cc3ccc(N)cc3nc2c1`
OUTPUT: condition met

INPUT: Repeat with `COC(=O)c1ccccc1N=NN(C)C`
OUTPUT: condition not met

INPUT: Repeat with `CCn1c(=O)c2[nH]c(-c3ccccc3)nc2n(CC)c1=O`
OUTPUT: condition not met

INPUT: Repeat with `NNC(=O)c1ccnc(Cl)c1`
OUTPUT: condition met

INPUT: Repeat with `C[C@]12CCC(=O)C=C1C=C[C@@H]1[C@@H]2CC[C@@]2(C)[C@H]1CC[C@@]21CCC(=O)O1`
OUTPUT: condition not met

INPUT: Repeat with `CCOC(=O)[C@H](O)[C@@H](O)C(=O)OCC`
OUTPUT: condition met

INPUT: Repeat with `On1nc2ccccc2n1`
OUTPUT: condition met

INPUT: Repeat with `CCCCOc1c(OC)cc(CCN)cc1OC`
OUTPUT: condition not met

INPUT: Repeat with `O=[N+]([O-])C=Cc1ccsc1`
OUTPUT: condition met

INPUT: Repeat with `O=[N+]([O-])c1ccc(Nc2ccccc2)cc1`
OUTPUT: condition not met

INPUT: Repeat with `O=S(=O)(O)c1ccc(O)c2ccccc12`
OUTPUT: condition met

INPUT: Repeat with `CCCCCF`
OUTPUT: condition not met

INPUT: Repeat with CCC(C)N(CC(O)COc1ccccc1)CC(O)COc1ccccc1 (centres undefined)
OUTPUT: condition not met

INPUT: Repeat with `OCc1ccc2c(c1)OCO2`
OUTPUT: condition met

INPUT: Repeat with CCCCC(N)C(=O)O (centres undefined)
OUTPUT: condition met

INPUT: Repeat with `CC(=O)Nc1ncccn1`
OUTPUT: condition met

INPUT: Repeat with `CN(C=O)c1ccccc1`
OUTPUT: condition met
